Source: PubChem BioAssay (NCI)

Test system: EKVX NSCLC
Assay: NCI-60 one-dose screen, 48 h (100 = growth as untreated, 0 = no growth, -100 = all killed)
Settings: 10 µM unless noted
About 83,000 compounds went through this panel and 20% of them were active in at least one assay; those are over-represented in the sample as a whole.
observed.property: growth (%)
Answer with a number only, understood to be in %.

Here's what some known entries look like.
>  <compound>
CN1C2CCC1[C@@H](COC(=O)c1ccccc1)[C@@H](O)C2 (stereo partly specified)

>  <growth, %>
104

$$$$
>  <compound>
CSc1cc(/C=C(\C)[C@@H]2C[C@@H]3O[C@]3(C)CCC[C@H](C)[C@H](O)[C@@H](C)C(=O)C(C)(C)[C@@H](O)CC(=O)O2)n(CCNC(=O)OC(C)(C)C)n1

>  <growth, %>
78.3

$$$$
>  <compound>
O=[N+]([O-])c1ccc(OCc2ccc(S(=O)(=O)F)c(Cl)c2)c(Cl)c1

>  <growth, %>
112

$$$$
>  <compound>
Cc1ccc(P(=O)(O)O)cc1

>  <growth, %>
100

$$$$
>  <compound>
C[Se]/C=C1/C(=O)N(c2c(Cl)cccc2Cl)c2ccccc21

>  <growth, %>
24

$$$$
>  <compound>
O=C(CBr)OCCOC(=O)CBr

>  <growth, %>
101

$$$$

[in] Could you tell me which growth is on file for CCC1CCC(=O)O1 (stereo unspecified) ?
[out] 111

[in] Could you tell me which growth is on file for `N#CCC(=O)c1ccccc1` ?
[out] 99

[in] Could you tell me which growth is on file for `Cc1ccc(S(=O)(=O)n2cc([C@@]3(O)C[C@H](CSC#N)OC3=O)c3ccccc32)cc1` ?
[out] 102

[in] Could you tell me which growth is on file for `COc1cc2c(cc1OC)-c1c3c(cc4c1[C@@H](C2)N(C)CC4)OCO3` ?
[out] 66.7

[in] Could you tell me which growth is on file for `CC(C)COC(=O)Cc1ccccc1` ?
[out] 109

[in] Could you tell me which growth is on file for `Nc1cccnc1` ?
[out] 115

[in] Could you tell me which growth is on file for `C#Cc1cccc(Nc2nc(Cl)nc3cc(NC(=O)CF)ccc23)c1` ?
[out] 71.4

[in] Could you tell me which growth is on file for `N#CC(NC(=O)CCl)=C(Cl)Cl` ?
[out] -45.3

[in] Could you tell me which growth is on file for `CC1=C([Te]c2ccccc2)C(=O)c2ccccc2C1=O` ?
[out] -38.6

[in] Could you tell me which growth is on file for `COC(=O)C1=CO[C@@H](C)[C@@H]2CN3CCc4c([nH]c5cc(OC)ccc45)[C@@H]3C[C@H]12` ?
[out] 97.5

[in] Could you tell me which growth is on file for CC[C@H](C)[C@H](NC(=O)CN(C)C)C(=O)N(C)[C@H](C[C@@H](OC(C)=O)c1nc(C(=O)NC23C4C5C2C2C3C4C52C(=O)OC)cs1)C(C)C (stereo partly specified) ?
[out] 40.4

[in] Could you tell me which growth is on file for CC1OC(=O)C(C(C)C)NC(=O)C(C(C)C)OC(=O)C(C(C)C)NC(=O)C(C)OC(=O)C(C(C)C)NC(=O)C(C(C)C)OC(=O)C(C(C)C)NC(=O)C(C)OC(=O)C(C(C)C)NC(=O)C(C(C)C)OC(=O)C(C(C)C)NC1=O (stereo unspecified) ?
[out] -23.9

[in] Could you tell me which growth is on file for `O=C(O)c1ccccc1N(CCO)CCCl` ?
[out] 118

[in] Could you tell me which growth is on file for O=C(Cc1ccccc1)NC(O)C(Cl)(Cl)Cl (stereo unspecified) ?
[out] 124

[in] Could you tell me which growth is on file for `COc1ccc(N)cc1N` ?
[out] 107
